Molecular target: UniProt P11511
Sequence (P11511 whole entry): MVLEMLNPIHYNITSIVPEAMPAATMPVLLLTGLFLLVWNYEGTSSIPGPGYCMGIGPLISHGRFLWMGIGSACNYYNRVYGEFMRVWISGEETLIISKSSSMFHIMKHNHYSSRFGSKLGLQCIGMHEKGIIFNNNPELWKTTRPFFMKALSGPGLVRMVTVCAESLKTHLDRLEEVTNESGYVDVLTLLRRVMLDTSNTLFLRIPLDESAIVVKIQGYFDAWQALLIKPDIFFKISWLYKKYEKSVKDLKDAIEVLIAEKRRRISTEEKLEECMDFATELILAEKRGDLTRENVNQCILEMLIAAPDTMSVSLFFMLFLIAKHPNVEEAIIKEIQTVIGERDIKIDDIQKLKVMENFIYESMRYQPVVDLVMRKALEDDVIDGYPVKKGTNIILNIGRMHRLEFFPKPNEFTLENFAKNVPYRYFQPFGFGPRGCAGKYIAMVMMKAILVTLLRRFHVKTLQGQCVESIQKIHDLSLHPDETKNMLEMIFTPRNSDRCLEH
pKi: −log10 of the molar value.

- COMPOUND: "C[C@]12CCC(=O)C=C1C[C@H](Cc1ccccc1)[C@@H]1[C@@H]2CC[C@]2(C)C(=O)CC[C@@H]12"
  pKi: 7.35
- COMPOUND: "CC12CCC3C(C1CCC2=O)[C@H](Cc1ccccc1)CC1=CC(=O)CCC13C (stereo partly specified)"
  pKi: 7.72
- COMPOUND: "C[C@]12CC[C@H]3[C@@H]([C@H](Cc4ccccc4)CC4=CC(=O)CC[C@@]43C)[C@@H]1CC[C@@H]2O"
  pKi: 7.40
- COMPOUND: "CC12CCC3C(C1CCC2=O)[C@H](CCc1ccccc1)CC1=CC(=O)CCC13C (stereo partly specified)"
  pKi: 7.88
- COMPOUND: "C[C@]12CC[C@H]3[C@@H]([C@H](CCc4ccccc4)CC4=CC(=O)CC[C@@]43C)[C@@H]1CC[C@@H]2O"
  pKi: 7.44
- COMPOUND: "C[C@]12CCC(=O)C=C1C[C@H](CCc1ccccc1)[C@@H]1[C@@H]2CC[C@]2(C)C(=O)CC[C@@H]12"
  pKi: 7.40
